system under test: HRH1 (Homo sapiens)
Construct: purchased Promega (in-house HiBiT-GPCR construct library, NanoBRET)
Sequence (P35367 whole entry): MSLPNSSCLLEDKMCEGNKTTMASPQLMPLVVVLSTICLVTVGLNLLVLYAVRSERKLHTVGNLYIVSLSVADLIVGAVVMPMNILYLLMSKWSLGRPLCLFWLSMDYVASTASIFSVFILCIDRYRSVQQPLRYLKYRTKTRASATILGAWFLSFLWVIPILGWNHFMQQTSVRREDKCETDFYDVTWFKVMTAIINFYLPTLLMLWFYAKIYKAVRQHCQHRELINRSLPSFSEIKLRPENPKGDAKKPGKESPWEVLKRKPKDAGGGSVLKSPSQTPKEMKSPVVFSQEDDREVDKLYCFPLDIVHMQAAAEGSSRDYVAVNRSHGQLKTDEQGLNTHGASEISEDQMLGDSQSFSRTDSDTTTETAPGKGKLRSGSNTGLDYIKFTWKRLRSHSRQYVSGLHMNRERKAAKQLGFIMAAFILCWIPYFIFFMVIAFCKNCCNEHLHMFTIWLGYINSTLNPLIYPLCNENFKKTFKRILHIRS
test summary: NanoBRET screen HiBiT-HRH1 in HEK293
Type: binding
measurement context: HRH1; tracer 0.1μM
property: NanoBRET Fold Response

1. N#CN=C(NCCCOc1cccc(CN2CCCCC2)c1)NCCNC(=O)CCOCCOCCOCCOCCNC(=O)CCc1ccc2n1[B-](F)(F)[N+]1=C(c3ccc[nH]3)C=CC1=C2 :: 0.91
2. COc1ccccc1N1CCN(CCCCN2C(=O)c3ccc(CNC(=O)CCOCCNC(=O)c4ccc(CNC(=O)CCc5ccc6n5[B-](F)(F)[N+]5=C(c7ccc[nH]7)C=CC5=C6)cc4)cc3C2=O)CC1 :: 2.18
3. CC(C)N(CC[C@H](c1ccccc1)c1cc(CCNC(=O)CCOCCOCCOCCOCCNC(=O)CCc2ccc3n2[B-](F)(F)[N+]2=C(c4ccc[nH]4)C=CC2=C3)ccc1O)C(C)C :: 1.08
